B1: tRNA (parent)
chain: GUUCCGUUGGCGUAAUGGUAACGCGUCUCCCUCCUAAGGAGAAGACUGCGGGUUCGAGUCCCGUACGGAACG

- Variants of: B1
- assay: yeast fitness relative to wild type (ratio to wild type); higher = fitter; tRNA-Arg(CCU), competitive growth, 37 C, YPD
Variants at the floor of the assay were thinned out.
reported endpoint: yeast fitness
// keep it numeric: no unit symbol after the value

[in] Note yeast fitness for the variant shown: C22G C24U G44C
[out] 0.59

New cases:
[in] Please supply the value of reported yeast fitness for the item C31G C62A
[out] 0.607

[in] Quickly give me recorded yeast fitness for A36C G38C
[out] 0.524

Reference source: the RNAGym collection of RNA variant scans (doi:10.1126/science.aae0568)
